biological target: Mouse ACVR2A (mouse, UniProt P27038 20-135, limits assumed); experiment: ELISA; further: test concentration or dose not given here
Sequence (P27038 20-135 limits assumed): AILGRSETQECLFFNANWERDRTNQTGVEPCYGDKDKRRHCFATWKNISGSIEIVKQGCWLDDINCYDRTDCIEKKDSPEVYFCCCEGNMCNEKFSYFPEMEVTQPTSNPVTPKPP
property: optical density (OD)
State the answer as a number, implicitly in OD.

Query: Which value of optical density has been reported for 373_D05 (antibody, V domains shown) VH: EVQLLESGGGLVQPGGSLRLSCAASGFTFSSYSMNWVRQAPGKGLEWVSGINYNSGYKGYADSVKGRFTISRDNSKNTLYLQMNSLRAEDTAVYYCARSANWHDTALDYWGQGTLVTVSS VL: DIQMTQSPSSLSASVGDRVTITCRASQSILSYLNWYQQKPGKAPKLVIYAATSRASGVPSRFSGSGSGTDFTLTISSLQPEDFATYYCQQSYDSPLTFGGGTKVEIK in the records?
Response: 3.73

Query: Which value of optical density has been reported for 369_D01 (antibody, V domains shown) VH: EVQLLESGGGLVQPGGSLRLSCAASGFTFSDYGMNWVRQAPGKGLEWVASINYNGGYTGYADSVKGRFTISRDNSKNTLYLQMNSLRAEDTAVYYCARSANWHDTALDYWGQGTLVTVSS VL: DIQMTQSPSSLSASVGDRVTITCRASQSILTYLNWYQQKPGKAPKLLIYAATSRASGVPSRFSGSGSGTDFTLTISSLQPEDFATYYCQQSYSNPLTFGGGTKVEIK in the records?
Response: 3.32

Query: Which value of optical density has been reported for 373_D10 (antibody, V domains shown) VH: EVQLLESGGGLVQPGGSLRLSCAASGFTFDSYSMNWVRQAPGKGLEWVSNINYNSGYKGYADSVKGRFTISRDNSKNTLYLQMNSLRAEDTAVYYCARSANWHDTALDYWGQGTLVTVSS VL: DIQMTQSPSSLSASVGDRVTITCRASQSILSYVNWYQQKPGKAPKLLIYAATSRASGVPSRFSGSGSGTDFTLTISSLQPEDFATYYCQQSYDLPLTFGGGTKVEIK in the records?
Response: 3.61

Query: Which value of optical density has been reported for 368_D01 (antibody, V domains shown) VH: EVQLLESGGGLVQPGGSLRLSCAASGFTFSSYGMHWVRQAPGKGLEWVANINYNGGYTSYADSVKGRFTISRDNSKNTLYLQMNSLRAEDTAVYYCARSANWHDTALDYWGQGTLVTVSS VL: DIQMTQSPSSLSASVGDRVTITCRASQSILSYLNWYQQKPGKAPKLVIYAATSRASGVPSRFSGSGSGTDFTLTISSLQPEDFATYYCQQSDSTPLTFGGGTKVEIK in the records?
Response: 2.97

Query: Which value of optical density has been reported for 369_E02 (antibody, V domains shown) VH: EVQLLESGGGLVQPGGSLRLSCAASGFTFDSYGMNWVRQAPGKGLEWVSNINYNGGYTGYADSVKGRFTISRDNSKNTLYLQMNSLRAEDTAVYYCARSANWHDTALDYWGQGTLVTVSS VL: DIQMTQSPSSLSASVGDRVTITCRASQSIVSYVNWYQQKPGKAPKLLIYATTSRHSGVPSRFSGSGSGTDFTLTISSLQPEDFATYYCQQSYDNPLTFGGGTKVEIK in the records?
Response: 2.34

Query: Which value of optical density has been reported for 369_D04 (antibody, V domains shown) VH: EVQLLESGGGLVQPGGSLRLSCAASGFTFDSYGMNWVRQAPGKGLEWVSGINYNGGYTSYADSVKGRFTISRDNSKNTLYLQMNSLRAEDTAVYYCARSANWHDTALDYWGQGTLVTVSS VL: DIQMTQSPSSLSASVGDRVTITCRASQSILSYVNWYQQKPGKAPKLVIYAATSRASGVPSRFSGSGSGTDFTLTISSLQPEDFATYYCQQSYNLPLTFGGGTKVEIK in the records?
Response: 2.97

Query: Which value of optical density has been reported for 374_C06 (antibody, V domains shown) VH: EVQLLESGGGLVQPGGSLRLSCAASGFTFDDYSMNWVRQAPGKGLEWVSSINYNSGYKGYADSVKGRFTISRDNSKNTLYLQMNSLRAEDTAVYYCARSANWHDTALDYWGQGTLVTVSS VL: DIQMTQSPSSLSASVGDRVTITCRASQSILTYVNWYQQKPGKAPKLLIYAATSRASGVPSRFSGSGSGTDFTLTISSLQPEDFATYYCQQSYNSPLTFGGGTKVEIK in the records?
Response: 3.71

Query: Which value of optical density has been reported for 373_E01 (antibody, V domains shown) VH: EVQLLESGGGLVQPGGSLRLSCAASGFTFSSYGMNWVRQAPGKGLEWVSGINYNGGYKGYADSVKGRFTISRDNSKNTLYLQMNSLRAEDTAVYYCARSANWHDTALDYWGQGTLVTVSS VL: DIQMTQSPSSLSASVGDRVTITCRASQSIVSYVNWYQQKPGKAPKLLIYAATSRHSGVPSRFSGSGSGTDFTLTISSLQPEDFATYYCQQSYNNPLTFGGGTKVEIK in the records?
Response: 2.56

Query: Which value of optical density has been reported for 373_H05 (antibody, V domains shown) VH: EVQLLESGGGLVQPGGSLRLSCAASGFTFSDYSMNWVRQAPGKGLEWVANINYNGGYKGYADSVKGRFTISRDNSKNTLYLQMNSLRAEDTAVYYCARSANWHDTALDYWGQGTLVTVSS VL: DIQMTQSPSSLSASVGDRVTITCRASQSILTYVNWYQQKPGKAPKLVIYAATSRASGVPSRFSGSGSGTDFTLTISSLQPEDFATYYCQQSYETPLTFGGGTKVEIK in the records?
Response: 3.29

Query: Which value of optical density has been reported for 369_G01 (antibody, V domains shown) VH: EVQLLESGGGLVQPGGSLRLSCAASGFTFSSYSMNWVRQAPGKGLEWVSNINYNSGYKSYADSVKGRFTISRDNSKNTLYLQMNSLRAEDTAVYYCARSANWHDTALDYWGQGTLVTVSS VL: DIQMTQSPSSLSASVGDRVTITCRASQSILSYVNWYQQKPGKAPKLLIYAATSRASGVPSRFSGSGSGTDFTLTISSLQPEDFATYYCQQSYSSPLTFGGGTKVEIK in the records?
Response: 3.67
